- targetOrTestSystem: T1, cynomolgus monkey IL-6 (Macaca fascicularis, UniProt P79341)
- T1 construct: His
- T1 sequence (P79341 28-212): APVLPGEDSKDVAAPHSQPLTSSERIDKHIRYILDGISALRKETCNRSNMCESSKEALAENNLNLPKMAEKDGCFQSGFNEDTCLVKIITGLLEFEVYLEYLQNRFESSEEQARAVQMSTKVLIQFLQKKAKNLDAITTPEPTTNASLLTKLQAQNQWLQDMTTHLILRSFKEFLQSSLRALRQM
- experimentSummary: Surface plasmon resonance (Biacore), cynomolgus monkey IL-6
- Assay type: binding
- conditionsUsed: cy/cyno; periplasmic fractions, 28A6 chain-shuffled
endpoint: kd (s⁻¹)
I only need the number, in s⁻¹, no unit after it.

Please give the measured kd for this molecule: 55A11d: 28A6 chain-shuffled Fab, periplasmic fraction (antibody, V domains shown) VH: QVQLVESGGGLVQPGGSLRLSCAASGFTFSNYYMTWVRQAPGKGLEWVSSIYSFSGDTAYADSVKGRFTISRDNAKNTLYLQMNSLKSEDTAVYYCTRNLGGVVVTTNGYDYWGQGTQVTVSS VL: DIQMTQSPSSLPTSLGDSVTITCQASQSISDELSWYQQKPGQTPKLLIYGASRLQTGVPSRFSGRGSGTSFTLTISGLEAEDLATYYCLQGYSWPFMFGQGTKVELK
8.17e-05
